System: P388 leukemia ip, CD2F1 mice, survival T/C
test description: NCI In Vivo Anticancer Drug Screen. Data for tumor model P388 Leukemia (intraperitoneal) in CD2F1 (CDF1) mice
assay context: endpoint: median survival time; dose: 100.0 mg/kg/injection; schedule: Q01DX009 (ip); vehicle: saline with Tween-80; higher = longer survival
Toxic doses and inconclusive results are not listed.
experimental endpoint: T/C

* CCCCn1c2nc(=O)n(C)c(=O)c-2cc2ccccc21 | 102 % of control
* Cc1ccc(NC(=O)Oc2ccc(F)cc2Cl)c([N+](=O)[O-])c1 | 118 % of control
* CCCCCCCCCC(=O)OC(C)C(=O)N(CCCC)CCCC (stereo unspecified) | 110 % of control
* CC(=O)N1CCNC(=O)/C1=C1\CCOC1=O | 101 % of control
* Cc1ccc(S(=O)(=O)O/N=C(/C#N)c2ccccc2)cc1 | 102 % of control
* C1CC2OC2CC1C1CO1 (stereo unspecified) | 104 % of control

The reported numbers originate from PubChem BioAssay AID330.
